molecular target: V1 receptor (Rattus norvegicus, UniProt P30560); assay: biochemical; type: binding
Sequence (P30560 whole entry): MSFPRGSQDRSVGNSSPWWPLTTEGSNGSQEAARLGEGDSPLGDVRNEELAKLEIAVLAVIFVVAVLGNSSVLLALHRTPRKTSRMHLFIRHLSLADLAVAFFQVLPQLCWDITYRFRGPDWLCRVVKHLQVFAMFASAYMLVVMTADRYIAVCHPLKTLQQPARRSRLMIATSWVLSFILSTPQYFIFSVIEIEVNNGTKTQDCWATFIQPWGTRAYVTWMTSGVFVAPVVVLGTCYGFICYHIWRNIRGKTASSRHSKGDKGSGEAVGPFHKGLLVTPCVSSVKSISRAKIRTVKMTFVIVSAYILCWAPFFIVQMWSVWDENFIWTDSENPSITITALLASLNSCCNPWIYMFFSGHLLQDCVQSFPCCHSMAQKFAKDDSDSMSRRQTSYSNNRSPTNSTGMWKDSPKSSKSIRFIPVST
pIC50: −log10 of the molar value.
// Criterion not met strictly below 7 in pIC50; Criterion met otherwise

Examples with answers:
| molecule | answer_label |
| --- | --- |
| Nc1ccc(SCCCCCOc2ccc(C(=O)N3CCC(N4C(=O)CCc5ccccc54)CC3)cc2)cc1 [Example 284] | Criterion not met |
| O=C(c1ccc(OCCCCCCN2CCC(N3CCCCC3)CC2)cc1)N1CCC(N2C(=O)CCc3ccccc32)CC1 [Example 265] | Criterion met |
| CN1CCN(CC(O)CCCCOc2ccc(C(=O)N3CCC(N4C(=O)CCc5ccccc54)CC3)cc2)CC1 (stereo not shown) [Example 178] | Criterion met |
| CCSCCCOc1ccc(C(=O)N2CCC(N3C(=O)CCc4ccccc43)CC2)cc1 [Example 95] | Criterion not met |
| O=C(c1ccc(OCC2CO2)cc1)N1CCC(N2C(=O)CCc3ccccc32)CC1 (stereo not shown) [Example 101] | Criterion not met |

Is the recorded value of pIC50 equal to or greater than 7 for this molecule? CC(=O)N[C@@H](CCC(N)=O)C(=O)NCCCOc1ccc(C(=O)N2CCC(N3C(=O)CCc4ccccc43)CC2)cc1 [Example 195]
Criterion not met

I'd appreciate it if you could say whether O=C(NCCCCOc1ccc(C(=O)N2CCC(N3C(=O)CCc4ccccc43)CC2)cc1)C1CCNCC1 [Example 231] has pIC50 at least equal to 7.
Criterion met

Evaluate CCOc1ccc(C(=O)N2CCC(N3C(=O)CCc4c(F)cc(F)cc43)CC2)c(OC)c1 [Example 139] : pIC50 at minimum 7?
Criterion met

Would you say CN(CCc1ccccc1)CC(O)CCCCOc1ccc(C(=O)N2CCC(N3C(=O)CCc4ccccc43)CC2)cc1 (stereo not shown) [Example 203] shows pIC50 at minimum 7?
Criterion met

Could you verify whether the entry NC(=O)OCCCCOc1ccc(C(=O)N2CCC(N3C(=O)CCc4ccccc43)CC2)cc1 [Example 38] shows pIC50 of no less than 7?
Criterion not met

In plain terms: is recorded pIC50 at least 7 for O=C(c1ccc2c(c1)OCO2)N1CCC(N2C(=O)CCc3ccccc32)CC1 [Example 113] ?
Criterion not met

----------
target: V1 receptor (Rattus norvegicus, UniProt P30560); test: biochemical; assay type: binding
IC50 strictly under 100 nM means YES; at 100 nM or over means NO.

| molecule | answer_label |
| --- | --- |
| COCCOc1cc(OC)ccc1C(=O)N1CCC(N2C(=O)CCc3ccccc32)CC1 | NO |

IC50 under 100 nM? Item: O=C(c1ccc(OCCCCCS(=O)(=O)c2cc[n+]([O-])cc2)cc1)N1CCC(N2C(=O)CCc3ccccc32)CC1
YES

Field: below-cutoff. Rule: recorded IC50 strictly less than 100 nM. Subject: CCOc1ccc(C(=O)N2CCC(N3C(=O)C(C(=O)O)Cc4ccccc43)CC2)c(OC)c1 (stereo not shown)
NO

Threshold test, IC50 < 100 nM: CC(=O)OCC(=O)NCCCCCOc1ccc(C(=O)N2CCC(N3C(=O)CCc4ccccc43)CC2)cc1
NO

Identify whether the molecule O=C(NCCCOc1ccc(C(=O)N2CCC(N3C(=O)CCc4ccccc43)CC2)cc1)[C@@H]1CCCN1 records IC50 below 100 nM.
YES

hey, is IC50 for Nc1ccc(S(=O)(=O)NCCCCCOc2ccc(C(=O)N3CCC(N4C(=O)CCc5ccccc54)CC3)cc2)cc1 lower than 100 nM or not?
NO

----------
Measured pIC50, listed per entry for reference.
molecular target: V1 receptor (Rattus norvegicus, UniProt P30560); test: biochemical; assay type: binding
Expect pIC50 as a plain number equal to -log10 of the molar concentration.

Study these solved cases before continuing.
| molecule | target_under_test | pIC50 |
| --- | --- | --- |
| CN(C)c1ccc(S(=O)(=O)NCCCCCOc2ccc(C(=O)N3CCC(N4C(=O)CCc5ccccc54)CC3)cc2)cc1 | V1 receptor (Rattus norvegicus, UniProt P30560) | 6.33 |
| CN(CCc1ccccn1)CC(O)CCCCOc1ccc(C(=O)N2CCC(N3C(=O)CCc4ccccc43)CC2)cc1 (stereo not shown) | V1 receptor (Rattus norvegicus, UniProt P30560) | 7.47 |
| O=C(c1ccc(OC2C=CCCC2)cc1)N1CCC(N2C(=O)CCc3ccccc32)CC1 (stereo not shown) | V1 receptor (Rattus norvegicus, UniProt P30560) | 6.11 |
| NC(=O)CC[C@H](NC(=O)CCCCCOc1ccc(C(=O)N2CCC(N3C(=O)CCc4ccccc43)CC2)cc1)C(N)=O | V1 receptor (Rattus norvegicus, UniProt P30560) | 7.02 |
| CCOc1ccc(C(=O)N2CCC(N3C(=O)CCc4ccc(F)cc43)CC2)c(O)c1 | V1 receptor (Rattus norvegicus, UniProt P30560) | 7.24 |
| CN(C)CCCNC(=O)CCCCCOc1ccc(C(=O)N2CCC(N3C(=O)CCc4ccccc43)CC2)cc1 | V1 receptor (Rattus norvegicus, UniProt P30560) | 7.46 |

With those in mind, consider the next molecule.
Consider the molecule O=C(CN1CCN(CCCOc2ccc(C(=O)N3CCC(N4C(=O)CCc5ccccc54)CC3)cc2)CC1)c1ccccc1 and give its recorded pIC50.
6.92

----------
biological target: V1 receptor (Rattus norvegicus, UniProt P30560); assay: biochemical; type: binding
property_measured: pIC50
Recall that pIC50 is obtained by taking minus log10 of the concentration measured in molar.

Some entries whose results are on file:
| compound | pIC50 |
| --- | --- |
| Nc1ccc(C(=O)NCCCCCOc2ccc(C(=O)N3CCC(N4C(=O)CCc5ccccc54)CC3)cc2)cc1 | 7.03 |
| CCCNc1cc(OC)ccc1C(=O)N1CCC(N2C(=O)CCc3ccccc32)CC1 | 6.57 |
| CC[N+](CC)(CC)CCCCCOc1ccc(C(=O)N2CCC(N3C(=O)CCc4ccccc43)CC2)cc1 | 7.18 |
| CC(=O)NCC(=O)NCCCOc1ccc(C(=O)N2CCC(N3C(=O)CCc4ccccc43)CC2)cc1 | 6.64 |
| O=C(c1ccc(OCCCN2CCN(CC(O)c3ccccc3)CC2)cc1)N1CCC(N2C(=O)CCc3ccccc32)CC1 (stereo not shown) | 6.62 |

For the compound CC(=O)OCCCCCCOc1ccc(C(=O)N2CCC(N3C(=O)CCc4ccccc43)CC2)cc1 , give its reported pIC50.
6.41

Tell us which pIC50 value is on record for CC(C)[C@H](NC(=O)CCCCCOc1ccc(C(=O)N2CCC(N3C(=O)CCc4ccccc43)CC2)cc1)C(N)=O
7.01

----------
target: V1 receptor (Rattus norvegicus, UniProt P30560); assay: biochemical; assay type: binding
property_measured: log10(IC50) (log10 of the value in nM)
Friendly reminder: values = log10 of IC50, unit nM.

| compound_smiles | log10(IC50) |
| --- | --- |
| NC(=O)CCCNc1ccc(C(=O)N2CCC(N3C(=O)CCc4ccccc43)CC2)cc1 | 3.00 |
| O=C(c1ccc(OCCCN2CCNCC2)cc1)N1CCC(N2C(=O)CCc3ccccc32)CC1 | 2.20 |
| Cn1ccnc1S(=O)(=O)CCCCCOc1ccc(C(=O)N2CCC(N3C(=O)CCc4ccccc43)CC2)cc1 | 1.88 |
| O=C(c1ccc(OCCCCCNS(=O)(=O)c2ccc([N+](=O)[O-])cc2)cc1)N1CCC(N2C(=O)CCc3ccccc32)CC1 | 2.56 |

Answer briefly: log10(IC50) recorded on V1 receptor (Rattus norvegicus, UniProt P30560) for C=CCOc1ccc(C(=O)N2CCC(N3C(=O)CCc4ccccc43)CC2)cc1
2.48

// output log10(IC50); input O=C(c1ccc(OCCCN2CCN(Cc3ccccc3)CC2)cc1)N1CCC(N2C(=O)CCc3ccccc32)CC1 ; system V1 receptor (Rattus norvegicus, UniProt P30560)
2.52

# assay system V1 receptor (Rattus norvegicus, UniProt P30560): give log10(IC50) of O=C(CCCCCOc1ccc(C(=O)N2CCC(N3C(=O)CCc4ccccc43)CC2)cc1)NC1CCN(Cc2ccccc2)CC1
1.53

Enter log10(IC50) (test system V1 receptor (Rattus norvegicus, UniProt P30560)) for CS(=O)(=O)NCCCOc1ccc(C(=O)N2CCC(N3C(=O)CCc4ccccc43)CC2)cc1
2.53

----------
molecular target: V1 receptor (Rattus norvegicus, UniProt P30560); assay: biochemical; format: binding
property_measured: IC50 (nM)
Numbers only here, please. The scale is nM.

| compound | property_measured | unit_of_measure | value_reported |
| --- | --- | --- | --- |
| CC(C)=CCCC(C)=CC(=O)N1CCC(N2C(=O)CCc3ccccc32)CC1 | IC50 | nM | 1500 |
| COc1ccc(C(=O)N2CCC(N3C(=O)CCc4ccccc43)CC2)c(N2CCOC2=O)c1 | IC50 | nM | 490 |

Entry CCN(CC)CC(O)CCCCOc1ccc(C(=O)N2CCC(N3C(=O)CCc4ccc(F)cc43)CC2)c(OC)c1 (centres unmarked) needs its IC50 filled in; supply it.
10

Given the compound O=C(c1ccc(C=NO)cc1)N1CCC(N2C(=O)CCc3ccccc32)CC1 , write its reported IC50.
1400

Specify measured IC50 for C=CCN1CCN(C(=O)CCCCCOc2ccc(C(=O)N3CCC(N4C(=O)CCc5ccccc54)CC3)cc2)CC1 .
57
